Data origin, for the record: patent US20260193271A1

tested on: SW480 (G12V); experiment: In vitro cell proliferation inhibition test (CellTiter-Glo), SW480; format: cell-based; conditions: Homo sapiens, SW480 colon cell line, KRAS (p.G12V), 72 h co-incubation
Outcome measure: log10 IC50 (log10 of the value in nM)
Scale: decimal log of IC50, IC50 in nM.

For this molecule ( CCn1c(-c2cc(-c3cc4c(n(C)c3=O)CCN(C)C4)cnc2[C@H](C)OC)c2c3cc(ccc31)-c1csc(n1)C[C@H](NC(=O)[C@H]1C[C@@H]1C)C(=O)N1CCC[C@H](N1)C(=O)OCC(C)(C)C2 (atropisomer, axis not shown) ), measured log10 IC50 is 0.08

For this molecule ( CCn1c(-c2cc(-c3ccc4c(c3)CN(C)CC4)cnc2[C@H](C)OC)c2c3cc(ccc31)-c1csc(n1)C[C@H](NC(=O)[C@H]1C[C@@H]1C)C(=O)N1CCC[C@H](N1)C(=O)OCC(C)(C)C2 (atropisomer, axis not shown) ), measured log10 IC50 is -0.30

For this molecule ( CCn1c(-c2cc(-c3cc(C4CCN(C)CC4)on3)cnc2[C@H](C)OC)c2c3cc(ccc31)-c1csc(n1)C[C@H](NC(=O)[C@H]1C[C@@H]1C)C(=O)N1CCC[C@H](N1)C(=O)OCC(C)(C)C2 (atropisomer, axis not shown) ), measured log10 IC50 is -0.36

For this molecule ( CCn1c(-c2cc(-c3cnc(OC4CCN(C)CC4)nc3)cnc2[C@H](C)OC)c2c3cc(ccc31)-c1csc(n1)C[C@H](NC(=O)[C@H]1C[C@@H]1C)C(=O)N1CCC[C@H](N1)C(=O)OCC(C)(C)C2 (atropisomer, axis not shown) ), measured log10 IC50 is 1.08

For this molecule ( CCn1c(-c2cc(-c3cccc(CN4CCOCC4)c3)cnc2[C@H](C)OC)c2c3cc(ccc31)-c1csc(n1)C[C@H](NC(=O)[C@H]1C[C@@H]1C)C(=O)N1CCC[C@H](N1)C(=O)OCC(C)(C)C2 (atropisomer, axis not shown) ), measured log10 IC50 is 1.26

For this molecule ( CCn1c(-c2cc(-c3cnn([C@@H]4CCN(C)C4)c3)cnc2[C@H](C)OC)c2c3cc(ccc31)-c1csc(n1)C[C@H](NC(=O)[C@H]1C[C@@H]1C)C(=O)N1CCC[C@H](N1)C(=O)OCC(C)(C)C2 (atropisomer, axis not shown) ), measured log10 IC50 is 0.90

For this molecule ( CCn1c(-c2cc(-c3cnc(N4CCN(C)CC4)nc3)cnc2[C@H](C)OC)c2c3cc(ccc31)-c1csc(n1)C[C@H](NC(=O)[C@H]1C[C@@H]1C)C(=O)N1CCC[C@H](N1)C(=O)OCC(C)(C)C2 (atropisomer, axis not shown) ), measured log10 IC50 is 0.76

For this molecule ( CCn1c(-c2cc(-c3ccc(CN4CC[C@@H](O)C4)cn3)cnc2[C@H](C)OC)c2c3cc(ccc31)-c1csc(n1)C[C@H](NC(=O)[C@H]1C[C@@H]1C)C(=O)N1CCC[C@H](N1)C(=O)OCC(C)(C)C2 (atropisomer, axis not shown) ), measured log10 IC50 is 0.79

For this molecule ( CCn1c(-c2cc(-c3cnc(CN4CCOCC4)nc3)cnc2[C@H](C)OC)c2c3cc(ccc31)-c1csc(n1)C[C@H](NC(=O)[C@H]1[C@H](C)[C@@H]1C)C(=O)N1CCC[C@H](N1)C(=O)OCC(C)(C)C2 (atropisomer, axis not shown) ), measured log10 IC50 is -0.32

For this molecule ( CCn1c(-c2cc(-c3nc(C)no3)cnc2[C@H](C)OC)c2c3cc(ccc31)-c1csc(n1)C[C@H](NC(=O)[C@H]1C[C@@H]1C)C(=O)N1CCC[C@H](N1)C(=O)OCC(C)(C)C2 (atropisomer, axis not shown) ), measured log10 IC50 is 1.18

For this molecule ( CCn1c(-c2cc(-c3cncc(CN4CCS(=N)(=O)CC4)c3)cnc2[C@H](C)OC)c2c3cc(ccc31)-c1csc(n1)C[C@H](NC(=O)[C@H]1[C@H](C)[C@@H]1C)C(=O)N1CCC[C@H](N1)C(=O)OCC(C)(C)C2 (atropisomer, axis not shown) ), measured log10 IC50 is 0.54

For this molecule ( CCn1c(-c2cc(-c3cnc(CN4CCS(=O)(=O)CC4)nc3)cnc2[C@H](C)OC)c2c3cc(ccc31)-c1csc(n1)C[C@H](NC(=O)[C@H]1C[C@@H]1C)C(=O)N1CCC[C@H](N1)C(=O)OCC(C)(C)C2 (atropisomer, axis not shown) ), measured log10 IC50 is 1.36

For this molecule ( CCn1c(-c2cc(-c3cc([C@@H]4COCCN4C)on3)cnc2[C@H](C)OC)c2c3cc(ccc31)-c1csc(n1)C[C@H](NC(=O)[C@H]1[C@H](C)[C@@H]1C)C(=O)N1CCC[C@H](N1)C(=O)OCC(C)(C)C2 (atropisomer, axis not shown) ), measured log10 IC50 is 0.20

For this molecule ( CCn1c(-c2cc(-c3cc(C4(C)CN(C)C4)on3)cnc2[C@H](C)OC)c2c3cc(ccc31)-c1csc(n1)C[C@H](NC(=O)[C@H]1[C@H](C)[C@@H]1C)C(=O)N1CCC[C@H](N1)C(=O)OCC(C)(C)C2 (atropisomer, axis not shown) ), measured log10 IC50 is -0.77

For this molecule ( CCn1c(-c2cc(-c3cnn(CCN4CCOCC4)c3)cnc2[C@H](C)OC)c2c3cc(ccc31)-c1csc(n1)C[C@H](NC(=O)[C@H]1C[C@@H]1C)C(=O)N1CCC[C@H](N1)C(=O)OCC(C)(C)C2 (atropisomer, axis not shown) ), measured log10 IC50 is 0.78
